Ref: ChEMBL document CHEMBL5500384

- experiment: Acute toxicity in Albino mouse assessed as change in total leucocyte count at 50 to 2000 mg/kg, po measured after 14 days (reference value: 7400 mm3)
- Assay type: organism-based
- experimental_conditions: in vivo, 336 h, dose 50-2000 mg/kg, time 14 day
Activity strictly under 9000 mm3 means Condition met; at 9000 mm3 or over means Condition not met.

Recorded results for 4 compounds are shown here.
>>> assigned_class("O=C1C(Cl)=C(Cl)C(=O)c2ccccc21")
"Condition not met"
>>> assigned_class("COc1ccc(C2C(Cl)C(=O)N2C2=C(Cl)C(=O)c3ccccc3C2=O)cc1 (configuration not stated)")
"Condition not met"
>>> assigned_class("CCOc1cc(C2C(Cl)C(=O)N2C2=C(Cl)C(=O)c3ccccc3C2=O)ccc1O (configuration not stated)")
"Condition met"
>>> assigned_class("CN(C)c1ccc(C2C(Cl)C(=O)N2C2=C(Cl)C(=O)c3ccccc3C2=O)cc1 (configuration not stated)")
"Condition not met"

Here's the next entry for you.
Q: Criterion: Activity strictly below 9000 mm3. Is it met by O=C1C(Cl)=C(N2C(=O)C(Cl)C2c2ccc(Cl)cc2)C(=O)c2ccccc21 (configuration not stated) ?
A: Condition not met
